- PROTOCOL DESCRIPTION: qHTS for Inhibitors of human tyrosyl-DNA phosphodiesterase 1 (TDP1): qHTS in cells in presence of CPT; also: nearly all actives have a fitted effect of over 55% in size
- SETUP CONDITIONS: chicken DT40 Tdp1-/-;hTDP1 cells + 20 nM CPT, ATP luminescence, 48 h; series mostly up to 46.2 µM
About 50,000 (12%) of roughly 420,000 compounds were called active. Not shown: some 26% with an inconclusive outcome. Calls follow the shape of the dose curve; as a rule, active = well fitted inhibition curve with a large enough effect; inconclusive = small, poorly fitted or top-dose-only effect; inactive = flat fitted curve, though single readings scatter. For the sample, actives were picked, then their nearest neighbours and some compounds at random.
Outcome field: choose from class 1 (active), class 0 (inactive)

Answered examples (6):
Cc1cc2c(C)nc(N/N=C/c3ccccc3)nc2o1
class 0
Cn1cccc1/C=N/NC(=O)CNc1cccc2ccccc12
class 0
Cc1ccc(-c2nc(Cn3c(=O)cc(-c4ccccc4)c4c(C)nn(C)c43)c(C)o2)cc1
class 0
Cc1ccc2c(c1)N(CC(=O)N1CCOCC1)C(=O)CO2
class 0
CC(=O)Nc1ccc(NC(=O)CN2C(=O)COc3ccc(S(=O)(=O)N4CCCCC4)cc32)cc1
class 0
COc1ccc(CCNc2ncnc3nc[nH]c23)cc1OC
class 1

Q: Returns: the outcome recorded for Cc1ccc(NC(=O)c2cnc(SCC(=O)NCC3CCCO3)n(C)c2=O)cc1 (stereo not drawn) in this assay.
Ans: class 1

Q: // param item: COc1ccc(/C=C(/NC(=O)c2ccccc2)C(=O)Nc2cccc(C(=O)O)c2)cc1 ; yields the recorded call
Ans: class 0
